Parameter boiling point: see the listing below.
Unit °C implied. Number only.

Some solved cases for reference:
[
  {
    "COMPOUND": "CC1(C)CCCCC1O (stereo not drawn)",
    "UNIT SPEC": "°C",
    "boiling point": 177
  },
  {
    "COMPOUND": "CCCN(C)C",
    "UNIT SPEC": "°C",
    "boiling point": 66
  },
  {
    "COMPOUND": "CSCSC",
    "UNIT SPEC": "°C",
    "boiling point": 148
  },
  {
    "COMPOUND": "COC(=O)C=C(C)C",
    "UNIT SPEC": "°C",
    "boiling point": 136
  },
  {
    "COMPOUND": "CC(C)CCSSCCC(C)C",
    "UNIT SPEC": "°C",
    "boiling point": 247
  }
]

Exercise: Indicate its recorded boiling point; the compound in question is CCCCCCC(C)Cl (stereo not drawn)
Key: 172

Exercise: Indicate its recorded boiling point; the compound in question is CC(C)(C)c1ccc(N)cc1
Key: 241

Exercise: Indicate its recorded boiling point; the compound in question is CCC(=O)CC
Key: 102

----------
Parameter melting point: see the listing below.
Unit °C implied. Number only.

[
  {
    "MOLECULE": "CCCN(CC1CC1)c1c([N+](=O)[O-])cc(C(F)(F)F)cc1[N+](=O)[O-]",
    "OBSERVED": 32.3
  },
  {
    "MOLECULE": "CCOP(=S)(NC(C)C)Oc1ccccc1C(=O)OC(C)C (centres undefined)",
    "OBSERVED": -12
  },
  {
    "MOLECULE": "O=C(O)COc1nc(Cl)c(Cl)cc1Cl",
    "OBSERVED": 149
  },
  {
    "MOLECULE": "CCC(C)CC(O)CC (centres undefined)",
    "OBSERVED": -91.2
  },
  {
    "MOLECULE": "c1ccc2nc(-c3ccc4ccccc4n3)ccc2c1",
    "OBSERVED": 194
  },
  {
    "MOLECULE": "CCCCCCCOCC",
    "OBSERVED": -68.3
  },
  {
    "MOLECULE": "CC(C)O",
    "OBSERVED": -89.5
  },
  {
    "MOLECULE": "O=[N+]([O-])c1ccc(O)c2ncccc12",
    "OBSERVED": 180
  }
]

Now examine the next entry.
Exercise: Indicate its recorded melting point; the molecule in question is CC(C)(C)c1ccc(N)cc1
Key: 17

----------
Parameter boiling point: see the listing below.
Unit °C implied. Number only.

Some solved cases for reference:
[
  {
    "COMPOUND": "Nc1cccc(Cl)c1",
    "UNIT SPEC": "°C",
    "OBSERVED": 230
  },
  {
    "COMPOUND": "Cc1ccnc2ccccc12",
    "UNIT SPEC": "°C",
    "OBSERVED": 262
  },
  {
    "COMPOUND": "FC(F)(I)C(F)(F)I",
    "UNIT SPEC": "°C",
    "OBSERVED": 112
  }
]

Exercise: Indicate its recorded boiling point; the compound in question is Fc1ccccc1I
Key: 189

Exercise: Indicate its recorded boiling point; the compound in question is CC(=O)c1cccnc1
Key: 220
